Recorded values, source PubChem BioAssay AID248.

- Test system: L1210 leukemia ip in BDF1 mice, survival T/C
- Experimental Details: NCI In Vivo Anticancer Drug Screen. Data for tumor model L1210 Leukemia (intraperitoneal) in B6D2F1 (BDF1) mice
- Details: endpoint: mean survival time; dose: 200.0 mg/kg/injection; schedule: Q01DX009 (ip); vehicle: saline; higher = longer survival
Toxic doses and inconclusive results are not listed.
Parameter Measured: T/C

Here is how some compounds turned out for T/C.
[
  {
    "Compound": "C=CCS(=O)(=O)c1ccccc1",
    "T/C": "98 % of control"
  },
  {
    "Compound": "C(CSC1=NCCN1)CSC1=NCCN1",
    "T/C": "115 % of control"
  },
  {
    "Compound": "C=C(C(=O)O)C(=O)O",
    "T/C": "100 % of control"
  }
]

[Q] For the compound O=C(O)C12CCC(CC1Br)C2 (centres undefined) , give its reported T/C.
[A] 110 % of control

[Q] For the compound COc1cc(N)c2nccc(N(C)C)c2c1 , give its reported T/C.
[A] 107 % of control

[Q] For the compound Cc1ccc(S(=O)(=O)NC(CCC(=O)O)C(=O)O)cc1 (centres undefined) , give its reported T/C.
[A] 100 % of control

[Q] For the compound O=c1sc(N=Nc2ccccc2)nn1-c1ccccc1 , give its reported T/C.
[A] 93 % of control

[Q] For the compound OCC1(O)OCC(O)C(O)C1O (centres undefined) , give its reported T/C.
[A] 94 % of control

* * *

- System: L1210 leukemia ip in BDF1 mice, survival T/C
- Experimental Details: NCI In Vivo Anticancer Drug Screen. Data for tumor model L1210 Leukemia (intraperitoneal) in B6D2F1 (BDF1) mice
- Details: endpoint: mean survival time; dose: 100.0 mg/kg/injection; schedule: Q04DX003 (ip); vehicle: saline with Tween-80; higher = longer survival
Inconclusive results and toxic doses are left out.
Parameter Measured: T/C

Here is how some compounds turned out for T/C.
[
  {
    "Compound": "CCCCC(C)O[Si](C)C1(C)CCCCC1 (stereo unspecified)",
    "T/C": "94 % of control"
  },
  {
    "Compound": "O=C(O)c1ccc[n+]([O-])c1",
    "T/C": "100 % of control"
  },
  {
    "Compound": "C=CCNC(=S)N/N=C\\c1cc(OC)c(OC)c(OC)c1",
    "T/C": "96 % of control"
  },
  {
    "Compound": "O=c1c2ccccc2[nH]c(=S)n1-c1ccc(Cl)cc1",
    "T/C": "100 % of control"
  },
  {
    "Compound": "Cc1ccc(N2CCN(c3ccc([N+](=O)[O-])cc3)CC2)cc1Cl",
    "T/C": "100 % of control"
  }
]

[Q] For the compound COc1cc2c(c3ccccc13)CCCC2=O , give its reported T/C.
[A] 103 % of control

* * *

As shown below, each of these compounds has a reported T/C value.
- System: L1210 leukemia ip in BDF1 mice, survival T/C
- Experimental Details: NCI In Vivo Anticancer Drug Screen. Data for tumor model L1210 Leukemia (intraperitoneal) in B6D2F1 (BDF1) mice
- Details: endpoint: mean survival time; dose: 150.0 mg/kg/injection; schedule: Q01DX009 (ip); vehicle: Klucel (hydroxypropylcellulose) (HPC); higher = longer survival
Toxic doses and inconclusive results are not listed.

[
  {
    "Compound": "CCOC(=O)CCCl",
    "T/C": "96 % of control"
  }
]

[Q] For the compound CC(C)CC(N)C(=O)NC1(C(=O)O)C2CC3CC(C2)CC1C3 (stereo unspecified) , give its reported T/C.
[A] 97 % of control

[Q] For the compound Cc1ccc(/C=C/c2ccccc2)cc1 , give its reported T/C.
[A] 104 % of control

[Q] For the compound O=C(Cl)/C=C/c1c(Cl)cccc1Cl , give its reported T/C.
[A] 100 % of control

[Q] For the compound Cc1ccc(O)c(C(=O)C(C)CCCC(C)C)c1 (stereo unspecified) , give its reported T/C.
[A] 94 % of control

[Q] For the compound C[C@@H]1CCC[C@@H](NC(=O)N(CCCl)N=O)C1 , give its reported T/C.
[A] 106 % of control

* * *

- Tested on: L1210 leukemia ip in BDF1 mice, survival T/C
- Experimental Details: NCI In Vivo Anticancer Drug Screen. Data for tumor model L1210 Leukemia (intraperitoneal) in B6D2F1 (BDF1) mice
- Details: endpoint: mean survival time; dose: 400.0 mg/kg/injection; schedule: Q04DX003 (ip); vehicle: other; higher = longer survival
- Description: The antitumor activity of compounds was measured in mice bearing transplantable tumors. Survival or tumor size were measured and the results are expressed as the measurement made in the treated group (T) divided by the measurement made in the vehicle treated control group (C). The tumor model used in this assay is L1210 Leukemia (intraperitoneal) in B6D2F1 (BDF1) mice
Toxic doses and inconclusive results are not listed.
Parameter Measured: T/C

Here is how some compounds turned out for T/C.
[
  {
    "Compound": "Cc1cc(Cl)c(Cl)cc1NC(=O)c1ccccc1F",
    "Reported Measurement": "96 % of control"
  },
  {
    "Compound": "CC(=O)C1(C(C)=O)C(c2cccc([N+](=O)[O-])c2)C1(c1ccccc1)[N+](=O)[O-] (centres undefined)",
    "Reported Measurement": "97 % of control"
  },
  {
    "Compound": "O=NN(CCN(N=O)c1ccccc1)c1ccccc1",
    "Reported Measurement": "97 % of control"
  }
]

Field: next compound
[Q] For the compound C#CCN(Cc1ccccc1)C(=O)Nc1cccc(Cl)c1 , give its reported T/C.
[A] 96 % of control

* * *

- System: L1210 leukemia ip in BDF1 mice, survival T/C
- Experimental Details: NCI In Vivo Anticancer Drug Screen. Data for tumor model L1210 Leukemia (intraperitoneal) in B6D2F1 (BDF1) mice
- Details: endpoint: mean survival time; dose: 200.0 mg/kg/injection; schedule: Q01DX005 (ip); vehicle: saline; higher = longer survival
- Method: The antitumor activity of compounds was measured in mice bearing transplantable tumors. Survival or tumor size were measured and the results are expressed as the measurement made in the treated group (T) divided by the measurement made in the vehicle treated control group (C). The tumor model used in this assay is L1210 Leukemia (intraperitoneal) in B6D2F1 (BDF1) mice
Inconclusive results and toxic doses are left out.
As shown below, each of these molecules has a reported T/C value.

Here is how some molecules turned out for T/C.
[
  {
    "Molecule": "OCC1OC(c2[nH]nc3c(Cl)ncnc23)C(O)C1O (centres undefined)",
    "Reported Measurement": "120 % of control"
  },
  {
    "Molecule": "NNc1c(C(N)=O)c2c(N)ncnc2n1C1OC(CO)C(O)C1O (centres undefined)",
    "Reported Measurement": "100 % of control"
  }
]

[Q] For the molecule O=c1[nH]nnc2nn(C3OC(CO)C(O)C3O)cc12 (centres undefined) , give its reported T/C.
[A] 109 % of control

[Q] For the molecule C=CCSc1nc2c(N)ncnc2n1C1OC(CO)C(O)C1O (centres undefined) , give its reported T/C.
[A] 98 % of control

* * *

- Tested on: L1210 leukemia ip in BDF1 mice, survival T/C
- Experimental Details: NCI In Vivo Anticancer Drug Screen. Data for tumor model L1210 Leukemia (intraperitoneal) in B6D2F1 (BDF1) mice
- Details: endpoint: mean survival time; dose: 400.0 mg/kg/injection; schedule: Q01DX009 (ip); vehicle: Klucel (hydroxypropylcellulose) (HPC); higher = longer survival
Toxic doses and inconclusive results are not listed.
As shown below, each of these compounds has a reported T/C value.

Here is how some compounds turned out for T/C.
[
  {
    "Compound": "CC(C)(C)C12OC1C(=O)C1(C(C)(C)C)OC1C2=O (configuration not stated)",
    "Parameter Measured": "T/C",
    "Reported Measurement": "105 % of control"
  },
  {
    "Compound": "COc1ccc(OC(=O)Nc2cc(Cl)ccc2C)cc1",
    "Parameter Measured": "T/C",
    "Reported Measurement": "94 % of control"
  },
  {
    "Compound": "ClC1=C(Cl)C2(Cl)C(COc3ccc(Cl)cc3)CC1(Cl)C2(Cl)Cl (configuration not stated)",
    "Parameter Measured": "T/C",
    "Reported Measurement": "96 % of control"
  },
  {
    "Compound": "CCCCCCCCCCCCC(C)C(=O)O (configuration not stated)",
    "Parameter Measured": "T/C",
    "Reported Measurement": "91 % of control"
  },
  {
    "Compound": "O=C(O)CCOC(C[N+](=O)[O-])C(Cl)(Cl)Cl (configuration not stated)",
    "Parameter Measured": "T/C",
    "Reported Measurement": "94 % of control"
  },
  {
    "Compound": "CC(=O)N(C)c1ccc(NC(=O)Nc2ccccc2F)cc1",
    "Parameter Measured": "T/C",
    "Reported Measurement": "95 % of control"
  },
  {
    "Compound": "CCCCCCCCC(O)CCCC (configuration not stated)",
    "Parameter Measured": "T/C",
    "Reported Measurement": "95 % of control"
  },
  {
    "Compound": "CC(C)(C)c1ccc(OC(=O)Nc2cc(C(F)(F)F)ccc2Cl)c(Br)c1",
    "Parameter Measured": "T/C",
    "Reported Measurement": "97 % of control"
  },
  {
    "Compound": "CCCCCCCCCCCCCCOc1ccc(Cl)cc1Cl",
    "Parameter Measured": "T/C",
    "Reported Measurement": "105 % of control"
  },
  {
    "Compound": "Cc1c(S(=O)(=O)F)ccc(O)c1[N+](=O)[O-]",
    "Parameter Measured": "T/C",
    "Reported Measurement": "110 % of control"
  }
]

[Q] For the compound Cc1cccc(C)c1NC(=O)Oc1ccc2ccccc2c1 , give its reported T/C.
[A] 101 % of control

[Q] For the compound CCCCCCOC(=O)CCC(=O)OCCCCCC , give its reported T/C.
[A] 97 % of control
